# assayInfo: CCTE_Simmons_MITO_viability: CellTiter-Glo Viability Assessment for CCTE's HepG2 Seahorse XF Respirometric Screening Assay [post-hoc], Simmons Lab (AID 2284007);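 as to AC50: cells exposed to chemical for 90 min before the ATP read; actives lower ATP signal relative to DMSO baseline meaning reduced viability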
Records with an inconclusive call do not appear. Calls of active or inactive are those of the source. The calls were made as follows: active = hit-call score of the fitted dose curve at least 0.9, where 1 is the maximum; inconclusive = response in the unintended direction; inactive = score below 0.9.
metric: AC50

{"columns": ["compound", "metric", "reportedResult"],
 "data": [
  ["CCOP(=S)(OCC)Oc1nc(Cl)n(C(C)C)n1", "AC50", "inactive"],
  ["CCOP(=O)(OCC)Oc1nc(Cl)c(Cl)cc1Cl", "AC50", "10.7 µM (active)"],
  ["CCCCC(O)(Cn1cncn1)c1ccc(Cl)cc1Cl (stereo unspecified)", "AC50", "10.1 µM (active)"],
  ["CC1(C)C(C=C(Cl)Cl)C1C(=O)OC(C#N)c1cccc(Oc2ccccc2)c1 (stereo unspecified)", "AC50", "inactive"],
  ["Cn1c(-c2ccccc2)cc(-c2ccccc2)[n+]1C", "AC50", "inactive"]
]}

The recorded AC50 for entry CC(C)(C)C(=O)C(Oc1ccc(Cl)cc1)n1cncn1 (stereo unspecified) equals inactive

---

# Read-out: E-selectin (Homo sapiens)
# assayInfo: BSK_SAg_Eselectin: BioMAP Diversity Plus: SAg Assay for Eselectin Biomarker Activity (AID 2283091)
# testContext: primary human HUVEC with PBMC; actives raise or lower the signal
# Method: BSK_SAg is a cell-based, multiplexed-readout assay that uses umbilical vein endothelium and peripheral blood mononuclear cells, a human vascular primary cell co-culture, with measurements taken at 24 hours after chemical dosing in a 96-well plate.BSK_SAg_Eselectin is an assay component measured in the BSK_SAg assay. It measures E-selectin antibody related to regulation of gene expression using ELISA technology.Data from the assay component BSK_SAg_Eselectin was analyzed into 1 assay endpoint. […]
The source made the active and inactive calls. The calls were made as follows: active = hit-call score of the fitted dose curve at least 0.9, where 1 is the maximum; inactive = score below 0.9.
metric: AC50

{"columns": ["compound", "metric", "reportedResult"],
 "data": [
  ["COc1cc(Cl)c(OC)cc1Cl", "AC50", "inactive"],
  ["CNC(=O)Oc1cccc2ccccc12", "AC50", "inactive"],
  ["COc1ccc(-c2ccccc2)cc1NNC(=O)OC(C)C", "AC50", "inactive"],
  ["CC1(C)C(C=C(Cl)Cl)C1C(=O)OC(C#N)c1cccc(Oc2ccccc2)c1 (stereo not given)", "AC50", "inactive"],
  ["CC1(C)C(C(=O)OC(C#N)c2cccc(Oc3ccccc3)c2)C1(C)C (stereo not given)", "AC50", "13.1 µM (active)"],
  ["COC(=O)N(C(=O)N1CO[C@@]2(C(=O)OC)Cc3cc(Cl)ccc3C2=N1)c1ccc(OC(F)(F)F)cc1", "AC50", "inactive"],
  ["OC(c1ccc(Cl)cc1)(c1ccc(Cl)cc1)C(Cl)(Cl)Cl", "AC50", "27.2 µM (active)"],
  ["CCCC(=NOCC)C1=C(O)CC(CC(C)SCC)CC1=O (stereo not given)", "AC50", "inactive"]
]}

Hey, quick one: what's AC50 for each of these?
1. COP(=S)(OC)SCn1nnc2ccccc2c1=O
2. CCOP(=O)(OCC)Oc1nc(Cl)c(Cl)cc1Cl
3. CCCCC(C#N)(Cn1cncn1)c1ccc(Cl)cc1 (stereo not given)
4. CCN(CC)c1nc(C)cc(OP(=S)(OC)OC)n1
5. CC(C)N1C(=O)N(c2ccccc2)CSC1=NC(C)(C)C

Reply:
1. 10.4 µM (active)
2. inactive
3. inactive
4. 10.5 µM (active)
5. 27.3 µM (active)

Hey, quick one: what's AC50 for each of these?
1. C=C(C)CN(CC)c1c([N+](=O)[O-])cc(C(F)(F)F)cc1[N+](=O)[O-]
2. COCc1cnc(C2=NC(C)(C(C)C)C(=O)N2)c(C(=O)O)c1 (stereo not given)
3. COCC(C)N(C(=O)CCl)c1c(C)csc1C (stereo not given)
4. N#CN=C1SCCN1Cc1ccc(Cl)nc1

Reply:
1: 33.7 µM (active); 2: inactive; 3: 10.7 µM (active); 4: inactive

Hey, quick one: what's AC50 for each of these?
1. CC(C)C1(C)N=C(c2ncccc2C(=O)O)NC1=O (stereo not given)
2. CC(C)N1C(=O)c2ccccc2NS1(=O)=O
3. Cc1cc(C)nc(Nc2ccccc2)n1
4. CCNP(=S)(OC)O/C(C)=C/C(=O)OC(C)C (stereo not given)

Reply:
inactive
inactive
20 µM (active)
inactive

Hey, quick one: what's AC50 for each of these?
1. CCOc1nc(F)cc2nc(S(=O)(=O)Nc3c(Cl)cccc3Cl)nn12
2. CCOC(=O)C(C)OC(=O)c1cc(Oc2ccc(C(F)(F)F)cc2Cl)ccc1[N+](=O)[O-] (stereo not given)

Reply:
inactive
10 µM (active)

Hey, quick one: what's AC50 for each of these?
1. N#Cc1c[nH]cc1-c1cccc2c1OC(F)(F)O2
2. CC(C)(C)C(=O)C(Oc1ccc(Cl)cc1)n1cncn1 (stereo not given)

Reply:
["inactive", "inactive"]
